Conditions: 298.15 K; 101.33 kPa; Liquid; Pycnometric method
Metric: mass density (kg/m3)
Hi! Could you send only the number? It should be in kg/m3, unit omitted.

Inquiry: Form field: reported mass density of CN(C)C=O [dimethylformamide]
Reply text: 946.1

Inquiry: Form field: reported mass density of C1CCOC1 [tetrahydrofuran]
Reply text: 880.7

Inquiry: Form field: reported mass density of OCCO
Reply text: 1106.3

Inquiry: Form field: reported mass density of C[S+](C)[O-] [dimethyl sulfoxide]
Reply text: 1095.4

Inquiry: Form field: reported mass density of C1COCCO1
Reply text: 1027.3

---

Details: 308.15 K; 101.33 kPa; Liquid; Pycnometric method
Threshold 1000 kg/m3: mass density strictly smaller gives Condition met, otherwise Condition not met.

Inquiry: For C1CCOC1 [tetrahydrofuran] , is the recorded mass density below the cut-off of 1000 kg/m3?
Reply text: Condition met

Inquiry: For CN(C)C=O [dimethylformamide] , is the recorded mass density below the cut-off of 1000 kg/m3?
Reply text: Condition met

Inquiry: For C[S+](C)[O-] [dimethyl sulfoxide] , is the recorded mass density below the cut-off of 1000 kg/m3?
Reply text: Condition not met
